Data origin, for the record: ChEMBL document CHEMBL5665440

# TEST_DETAILS: Human liver microsomal stability of compound in microsomal protein, PBS buffer pH 7.4, NADPH, glucose-6-phosphate and glucose-6-phosphate dehydrogenase media. Aliquotes were taken at 5 time points and after stopping the reaction, supernatants were analyzed using HPLC coupled with a tandem mass spectrometer. The elimination constant, half-life, and intrinsic clearance are determined as results using linear regression analysis.
# Format: ADME, microsomes, Microsome
# TEST_PARAMETERS: liver microsomes
MEASUREMENT_KIND: half-life

Recorded result, O=C(Nc1cc(Cl)cc(-c2ccc3[nH]c(C(=O)O)cc3c2)c1)OCc1ccccc1 , half-life: > 2.89 h

Recorded result, O=C(Nc1ccc2c(c1)CNC2)c1cc(Cl)cc2c1cnn2C1CCC1 , half-life: > 2.89 h

Recorded result, CO[C@H]1C[C@H](n2ncc3c(C(=O)Nc4ccc5c(c4)CNC5)cc(Cl)cc32)C1 , half-life: > 2.89 h

---
Recorded result, Cc1c(C(=O)Nc2cc([C@H]3CCOC3)ccn2)cc(C2CC2)n1C , half-life: 0.482 h

Recorded result, CC[C@@H](Cc1nnn[nH]1)c1ccc(NC(=O)c2cc(Cl)cc(NC(=O)OCc3ccccc3)c2)cc1 , half-life: 1.12 h

Recorded result, O=C(Nc1ccc2c(c1)CNC2)c1cc(Cl)cc2ccncc12 , half-life: > 2.89 h

Recorded result, NCc1cccc(NC(=O)CN(C(=O)OCc2ccccc2)c2ccc(OCc3ccccc3)cc2)c1 , half-life: 2.6 h

Recorded result, NCc1cccc(CNC(=O)[C@@H](NC(=O)OCc2ccccc2)c2ccc(OCc3ccccc3)cc2)c1 , half-life: 7.17 h

Recorded result, C=CC[C@H]1NCc2cc(NC(=O)c3cc(F)cc4[nH]ncc34)ccc21 , half-life: > 2.89 h

Recorded result, O=C1Cc2c(cccc2C(=O)Nc2ccc3c(c2)CNC3)N1 , half-life: > 2.89 h

Recorded result, O=C(NCC(F)(F)F)c1cc(Cl)c(F)cc1NS(=O)(=O)c1ccc(Oc2ccccc2Cl)cc1 , half-life: 0.4 h
